// provenance: patent US20090123479A1

target.or.test.system: T1, recombinant human IL-23 (human, UniProt Q9NPF7 20-189; P29460 23-328)
T1 construct: also called hIL-23
T1 sequence 1: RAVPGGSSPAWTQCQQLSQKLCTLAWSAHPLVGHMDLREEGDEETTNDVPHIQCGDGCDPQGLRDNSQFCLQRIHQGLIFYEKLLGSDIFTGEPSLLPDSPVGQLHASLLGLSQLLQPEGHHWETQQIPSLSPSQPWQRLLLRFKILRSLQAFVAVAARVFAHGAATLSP
T1 sequence 2: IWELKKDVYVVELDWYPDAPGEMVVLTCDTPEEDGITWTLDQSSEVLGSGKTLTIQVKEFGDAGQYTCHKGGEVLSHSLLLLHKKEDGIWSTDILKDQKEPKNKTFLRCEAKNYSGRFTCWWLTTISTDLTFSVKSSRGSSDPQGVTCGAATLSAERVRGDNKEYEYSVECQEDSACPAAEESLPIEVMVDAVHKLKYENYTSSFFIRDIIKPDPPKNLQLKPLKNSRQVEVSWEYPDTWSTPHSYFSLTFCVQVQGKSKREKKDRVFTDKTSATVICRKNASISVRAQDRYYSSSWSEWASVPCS
protocol.details: SPR (Biacore T100), purified antibody captured on anti-human IgG, IL-23 analyte, 1:1 model
quantity.kind: koff

A8M3 (antibody, V domains shown) VH: QVQLVQSGAEVKKPGSSVKVSCKASGYTFTSYGITWVRQAPGQGLEWMGEDYPRSGNTYYNEKFKGRVTITADKSTSTAYMELSSLRSEDTAVYYCARAEFISTVVAPYYYALDYWGQGTLVTVSS VL: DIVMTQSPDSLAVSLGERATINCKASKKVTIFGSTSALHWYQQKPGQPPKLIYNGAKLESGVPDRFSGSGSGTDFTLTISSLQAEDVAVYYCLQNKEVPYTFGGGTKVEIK	0.000135 s⁻¹
A6M0 (antibody, human IgG1, kappa, V domains shown, Full length chains) VH: QVQLVQSGAEVKKPGSSVKVSCKASGYTFTSYGITWVRQAPGQGLEWMGENYPRSGNTYYNEKFKGRVTITADKSTSTAYMELSSLRSEDTAVYYCARVEFISTVVAPYYYALDYWGQGTLVTVSS VL: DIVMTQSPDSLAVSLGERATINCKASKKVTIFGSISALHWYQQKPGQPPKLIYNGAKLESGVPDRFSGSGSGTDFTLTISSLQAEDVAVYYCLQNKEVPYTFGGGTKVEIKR	0.000298 s⁻¹

Please look at the following binder next.
Exercise: Return koff for the following binder: A7M3 (antibody, human IgG1, kappa, V domains shown, Full length chains) VH: QVQLVQSGAEVKKPGSSVKVSCKASGYTFTSYGITWVRQAPGQGLEWMGEDYPRSGNTYYNEKFKGRVTITADKSTSTAYMELSSLRSEDTAVYYCARSEFISTVVAPYYYALDYWGQGTLVTVSS VL: DIVMTQSPDSLAVSLGERATINCKASKKVTIFGSTSALHWYQQKPGQPPKLIYNGAKLESGVPDRFSGSGSGTDFTLTISSLQAEDVAVYYCLQNKEVPYTFGGGTKVEIKR
Solution: 0.000145 s⁻¹
